assay: Vehicle/excipient solubility screen; type: physicochemical; conditions: polysorbate 80, aqueous with cosolvent or surfactant or cyclodextrin; Polysorbate 8O; read-out: Solubility
TEST READOUT: solubility

What solubility value was documented for this compound, CCOc1ccc2cc(C3CC(c4ccc(I)cc4)=NN3C(=O)CCCC(=O)NCCCN3CCOCC3)c(Cl)nc2c1 (stereo not shown) ?
< 1000 µg/mL

====

experiment: Pharmacokinetics in mice (plasma, HPLC-MS/MS); assay type: in vivo; settings: mouse, plasma, ip, 200 mg/kg, DMSO vehicle, mice
TEST READOUT: Cmax (ng/mL)
State the answer as a number, implicitly in ng/mL.

Given CCOc1ccc2cc(C3CC(c4ccc(I)cc4)=NN3C(=O)CCCC(=O)NCCCN3CCOCC3)c(Cl)nc2c1 (stereo not shown) , state its recorded Cmax.
92.1

====

assay: Pharmacokinetics in mice (plasma, HPLC-MS/MS); type: in vivo; conditions: mouse, plasma, ip, 20 mg/kg, NMP vehicle, mice
TEST READOUT: AUC(0-t) (ng·h/mL)
Give just the number in ng·h/mL; leave the unit off.

Reported AUC(0-t) for CCOc1ccc2cc(C3CC(c4ccc(I)cc4)=NN3C(=O)CCCC(=O)NCCCN3CCOCC3)c(Cl)nc2c1 (stereo not shown) : what is it?
16400

====

assay: Pharmacokinetics in mice (plasma, HPLC-MS/MS); format: in vivo; conditions: mouse, plasma, ip, 200 mg/kg, IP, DMSO vehicle, 200 mg/kg, mice; read-out: AUC 0-inf_obs
TEST READOUT: AUC(0-inf) (ng·h/mL)
Please respond with the number in ng·h/mL and leave the unit unwritten.

Which AUC(0-inf) value is on record for CCOc1ccc2cc(C3CC(c4ccc(I)cc4)=NN3C(=O)CCCC(=O)NCCCN3CCOCC3)c(Cl)nc2c1 (stereo not shown) [compound 329] ?
2220

====

assay: Vehicle/excipient solubility screen; format: physicochemical; details: water; read-out: Solubility
TEST READOUT: solubility

Fill in: solubility of CCOc1ccc2cc(C3CC(c4ccc(I)cc4)=NN3C(=O)CCCC(=O)NCCCN3CCOCC3)c(Cl)nc2c1 (stereo not shown) [compound 329] is ___
< 1000 µg/mL

====

test: Intrinsic clearance and half-life in mouse microsomes; type: in vitro ADME; conditions: Mouse microsomes
TEST READOUT: microsomal CLint (µL/min/mg)
Numeric only. Scale: µL/min/mg

GET /values?readout=microsomal CLint&item= CCOc1ccc2cc(C3CC(c4ccc(I)cc4)=NN3C(=O)CCCC(=O)NCCCN3CCOCC3)c(Cl)nc2c1 (stereo not shown)
31.7

====

assay: Pharmacokinetics in mice (plasma, HPLC-MS/MS); format: in vivo; details: mouse, plasma, ip, 200 mg/kg, IP, NMP vehicle, 200 mg/kg, mice; read-out: Lambda_z (converted)
TEST READOUT: k el (s⁻¹)
Respond with the bare value in s⁻¹.

Field request: k el | item: CCOc1ccc2cc(C3CC(c4ccc(I)cc4)=NN3C(=O)CCCC(=O)NCCCN3CCOCC3)c(Cl)nc2c1 (stereo not shown) [compound 329]
1.94e-05

====

assay: Vehicle/excipient solubility screen; format: physicochemical; details: organic solvent or mixture; polysorbate 80, NMP, propylene glycol, PEG 400 (+1.1 mol. eq. HCl); read-out: solubility in final formulation
TEST READOUT: solubility

Which solubility value is on record for CCOc1ccc2cc(C3CC(c4ccc(I)cc4)=NN3C(=O)CCCC(=O)NCCCN3CCOCC3)c(Cl)nc2c1 (stereo not shown) ?
≤ 20 mg/mL
